In this section we review reported pKd values for a set of compounds.
Target: HIV-1 NefNL4-3 (Human immunodeficiency virus type 1 group M subtype B, UniProt P03406, A33V/T15A/T51N/V11I)
Assay: Surface plasmon resonance binding to recombinant full-length Nef (NL4-3)
Details: KD, M, Table 4; SPR fit 2-step induced fit, KD = koff/kon × koff2/(koff2 + kon2)
Field pKd (float): negative decimal logarithm of the concentration in molar.

smilesCode | outcomeMeasure | valueReported
CC(C)(C)OC(=O)c1ccc(-c2nn(-c3nc4ccccc4[nH]3)c(O)c2CCc2ccc(F)cc2)cc1 | pKd | 4.17
O=C(OCc1ccccc1)N1CCC(c2nn(-c3nc4cccnc4[nH]3)c(O)c2CCc2ccc(F)cc2)CC1 | pKd | 6.14
O=C1CCCN1CCc1c(-c2ccc(C(F)(F)F)cc2)nn(-c2nc3ccccc3[nH]2)c1O | pKd | 5.77

// next entry
Fill blank: measured pKd of the compound CC(C)(C)OC(=O)N1C[C@@H]2[C@H](C1)[C@H]2c1nn(-c2nc3ccccc3[nH]2)c(O)c1CCc1ccc(F)cc1 is ____.
5.32
